target: LPA1 receptor (Mus musculus); construct: expressed in transfected cells; assay: LPA1 receptor phosphorylation ([32P]Pi labeling, immunoprecipitation); format: cell-based
Sequence (P61793 whole entry): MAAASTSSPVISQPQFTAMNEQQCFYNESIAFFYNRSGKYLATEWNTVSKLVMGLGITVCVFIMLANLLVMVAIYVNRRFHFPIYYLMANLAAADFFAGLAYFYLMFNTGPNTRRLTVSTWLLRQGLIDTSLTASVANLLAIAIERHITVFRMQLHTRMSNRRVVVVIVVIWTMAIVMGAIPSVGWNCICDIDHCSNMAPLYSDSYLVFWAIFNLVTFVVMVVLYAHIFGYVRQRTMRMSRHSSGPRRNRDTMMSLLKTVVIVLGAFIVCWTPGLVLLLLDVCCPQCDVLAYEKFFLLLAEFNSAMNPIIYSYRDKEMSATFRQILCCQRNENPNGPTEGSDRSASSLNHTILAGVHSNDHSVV
assayEndpoint: EC50

Problem: // lookup EC50 for CCCCCCCCCCCCCC(=O)O[C@@H]1[C@@H](C)[C@@]2(O)[C@@H](C=C(CO)C[C@]3(O)C(=O)C(C)=C[C@@H]23)[C@@H]2C(C)(C)[C@]12OC(C)=O [PMA, phorbol myristate acetate]
Solution: 3 to 10 nM

* * *

Tested on: wild-type C9 cells
Experiment: Intracellular calcium concentration response to LPA, wild type C9 cells
Type: cell-based, rat
Details: read-out: EC50, increase in intracellular calcium concentration
Procedure: C9 cells (Clone 9, rat hepatic epithelial cells, CRL-1439™), obtained directly from American Type Culture Collection, were cultured in Ham’s F12 Kaighn’s modification medium supplemented with 10% fetal bovine serum, 100 μg/ml streptomycin, 100 units/ml penicillin and 0.25 μg/ml amphotericin B at 37°C under a 95% air and 5% CO2 atmosphere, as described previously. […] This procedure has been described previously. […] The intracellular calcium concentration was calculated as described by Grynkiewicz et al.. […]
pEC50: −log10 of the molar value.
assayEndpoint: pEC50

Problem: Item CCCCCCCC/C=C\CCCCCCCC(=O)OC[C@@H](O)COP(=O)(O)O with wild-type C9 cells - pEC50?
Solution: 6.40 to 6.70
